Listed here: items and their measured OD 490/630 nm.
target: T1, Ala mutant of TA0096, SEQ ID NO: 27; assay: ELISA, coated peptide
T1 peptide: AENMDDQWMQDEMEIGY
Number only, no unit.

Here's what some known entries look like.
1. E9 (antibody, V domains shown, Chicken variable regions in a mouse chimeric antibody (IgG1); also called anti-PAD4 antibody E9) VH: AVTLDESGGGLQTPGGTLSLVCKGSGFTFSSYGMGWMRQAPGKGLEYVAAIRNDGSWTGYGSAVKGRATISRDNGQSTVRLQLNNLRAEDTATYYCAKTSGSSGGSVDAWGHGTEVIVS VL: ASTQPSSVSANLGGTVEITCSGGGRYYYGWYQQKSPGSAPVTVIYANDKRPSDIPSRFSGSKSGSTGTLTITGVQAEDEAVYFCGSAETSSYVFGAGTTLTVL    1.89
2. G8 (antibody, V domains shown, Chicken variable regions in a mouse chimeric antibody (IgG1); also called anti-PAD4 antibody G8) VH: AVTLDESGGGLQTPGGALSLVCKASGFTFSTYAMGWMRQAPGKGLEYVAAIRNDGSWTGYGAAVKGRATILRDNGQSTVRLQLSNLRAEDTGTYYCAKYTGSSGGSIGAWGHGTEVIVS VL: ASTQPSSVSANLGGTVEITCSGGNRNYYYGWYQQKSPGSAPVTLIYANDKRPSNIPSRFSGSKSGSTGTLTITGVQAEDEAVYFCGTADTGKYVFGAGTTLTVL    1.96

Task item: Name the recorded OD 490/630 nm of the binder listed here: A11 (antibody, V domains shown, Chicken variable regions in a mouse chimeric antibody (IgG1); also called anti-PAD4 antibody A11) VH: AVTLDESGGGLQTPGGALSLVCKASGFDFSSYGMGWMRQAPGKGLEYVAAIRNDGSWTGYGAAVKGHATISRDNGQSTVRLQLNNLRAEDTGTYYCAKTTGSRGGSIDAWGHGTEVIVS VL: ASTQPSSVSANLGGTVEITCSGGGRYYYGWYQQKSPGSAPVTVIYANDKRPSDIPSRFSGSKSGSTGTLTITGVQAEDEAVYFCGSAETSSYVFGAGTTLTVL
Reply: 1.95
